ASSAY_SYSTEM: Human BBOX (γ-butyrobetaine hydroxylase) (Homo sapiens, UniProt O75936)
Construct: gene BBOX1; human recombinant enzyme
Sequence (O75936 whole entry): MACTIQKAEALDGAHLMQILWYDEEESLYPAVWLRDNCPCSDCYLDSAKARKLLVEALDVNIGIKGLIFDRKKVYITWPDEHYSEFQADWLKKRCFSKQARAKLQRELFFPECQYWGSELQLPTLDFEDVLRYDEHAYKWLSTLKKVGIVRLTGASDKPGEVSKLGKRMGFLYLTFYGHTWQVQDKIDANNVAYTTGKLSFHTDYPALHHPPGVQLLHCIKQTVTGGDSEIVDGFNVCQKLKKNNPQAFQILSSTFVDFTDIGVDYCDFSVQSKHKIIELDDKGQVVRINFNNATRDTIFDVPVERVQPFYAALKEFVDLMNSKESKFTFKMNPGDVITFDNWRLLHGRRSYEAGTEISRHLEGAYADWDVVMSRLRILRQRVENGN
EXPERIMENT_DESCRIPTION: carnitine formation from gamma-butyrobetaine by UPLC/MS/MS
Assay type: biochemical
REPORTED_CONDITIONS: 200 µM GBB, 3 mM 2-oxoglutarate, 0.25 mM ferrous ammonium sulfate, 10 mM ascorbate, pH 7.0, 37 °C, 15 min preincubation
QUANTITY: IC50
The reply must contain the numeric value and, after it, the unit.

Answer briefly: IC50 recorded on Human BBOX (γ-butyrobetaine hydroxylase) (Homo sapiens, UniProt O75936) for `C[N+](C)(C)CCCC(=O)NCCCc1ccccc1`
76 µM

* * *

Entries and their measured IC50 follow.
ASSAY_SYSTEM: Human BBOX (γ-butyrobetaine hydroxylase) (Homo sapiens)
Construct: gene BBOX1; human recombinant enzyme
EXPERIMENT_DESCRIPTION: carnitine formation from gamma-butyrobetaine by UPLC/MS/MS
Type: biochemical
I only need the number, in µM, no unit after it.

Cc1ccc(NC(=O)CCC[N+](C)(C)C)cc1C = 97

Please turn your attention to the following entry.
# return recorded IC50 for entry `C[N+](C)(C)CCCC(=O)Nc1ccc([N+](=O)[O-])cc1`
78
